Experiment: HRO761 blood PK in SW48 tumour-bearing mice
Type: in vivo, mouse
Conditions: female, mouse, whole blood, po, 20 mg/kg; read-out: AUCb, u above GI90, u
observable: AUC (µM·h)
Write the number in µM·h without appending the unit.

Request: Which AUC is listed for CCc1c(N2CCN(C(=O)c3ncnc(C)c3O)CC2)c(=O)n2nc(C3=CCOCC3)nc2n1CC(=O)Nc1ccc(C(F)(F)F)cc1Cl ?
Response: 0.52

====

Test: HRO761 blood PK in SW48 tumour-bearing mice
Format: in vivo, mouse
Conditions: female, mouse, whole blood, oral, 120 mg/kg, Free HRO761 blood concentration; 2 h; single mouse
observable: concentration at 2 h (µM)
Please respond with the number in µM and leave the unit unwritten.

Request: What concentration at 2 h value was documented for this compound, CCc1c(N2CCN(C(=O)c3ncnc(C)c3O)CC2)c(=O)n2nc(C3=CCOCC3)nc2n1CC(=O)Nc1ccc(C(F)(F)F)cc1Cl ?
Response: 3.12

====

Biological target: WRN (D1D2RH) (Homo sapiens)
Construct: N-terminal Avi Tag-WRN(Asn517–Pro1238)
Sequence (Q14191 517-1238): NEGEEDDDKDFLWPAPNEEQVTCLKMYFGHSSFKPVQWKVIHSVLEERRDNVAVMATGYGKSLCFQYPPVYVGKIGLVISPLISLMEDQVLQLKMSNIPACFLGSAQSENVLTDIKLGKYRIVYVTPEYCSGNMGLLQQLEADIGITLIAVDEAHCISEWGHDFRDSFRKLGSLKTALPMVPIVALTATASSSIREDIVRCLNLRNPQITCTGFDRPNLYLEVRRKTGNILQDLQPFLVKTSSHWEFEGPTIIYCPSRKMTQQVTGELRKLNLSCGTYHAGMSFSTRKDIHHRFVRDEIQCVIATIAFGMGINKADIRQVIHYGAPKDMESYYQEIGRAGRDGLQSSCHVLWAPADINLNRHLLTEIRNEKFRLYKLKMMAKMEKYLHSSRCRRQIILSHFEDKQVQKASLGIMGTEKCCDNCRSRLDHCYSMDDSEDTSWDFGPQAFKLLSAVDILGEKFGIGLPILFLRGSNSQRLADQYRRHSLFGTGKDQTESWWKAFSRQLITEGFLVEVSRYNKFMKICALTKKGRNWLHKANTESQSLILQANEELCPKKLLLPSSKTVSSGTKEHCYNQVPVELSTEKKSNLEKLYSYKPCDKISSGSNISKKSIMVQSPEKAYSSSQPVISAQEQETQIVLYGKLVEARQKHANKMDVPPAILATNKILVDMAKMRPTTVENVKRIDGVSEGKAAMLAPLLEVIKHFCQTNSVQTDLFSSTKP
Experiment: Radioactive binding assay using an SPA (saturation binding)
Settings: 10 nM WRN, in presence of 50 nM dsDNA
Procedure: A total of 20 μl N-terminal Avi tag-WRN protein (Asn517-Pro1238) in 30 mM Tris pH 7.5, 30 mM NaCl, […], 0.02% BSA, 0.1% Pluronic F127, containing or not a fivefold higher concentration of dsDNA as compared to protein concentration, were incubated with 20 μl [^3H]-probe 6 (Extended Data Fig. 2f) for 1 h at room temperature. […]
observable: pKd
// scale note: pKd = -log10(conc_M); give the bare number

Request: Given the entry [3H]c1cc(C(F)(F)F)cc([3H])c1NC(=O)Cn1c(C)c(N2CCN(C(C)=O)CC2)c(=O)n2nc(N3CCN(C(C)=O)CC3)nc12 , report its measured pKd.
Response: 7.85

====

Assay: HRO761 blood PK in SW48 tumour-bearing mice
Type: in vivo, mouse
Conditions: female, mouse, whole blood, po, 60 mg/kg; read-out: AUCb, u above GI90, u
observable: AUC (µM·h)
Record the value in µM·h, omitting the unit from your answer.

Request: Param item = CCc1c(N2CCN(C(=O)c3ncnc(C)c3O)CC2)c(=O)n2nc(C3=CCOCC3)nc2n1CC(=O)Nc1ccc(C(F)(F)F)cc1Cl ; retrieve measured AUC.
Response: 6.08

====

Assay: HRO761 blood PK in SW48 tumour-bearing mice
Assay type: in vivo, mouse
Settings: female, mouse, whole blood, oral, 60 mg/kg, Free HRO761 blood concentration; 8 h; single mouse
observable: concentration at 8 h (nM)
The answer is to be given in nM; state only the numeric part.

Request: Quick one: concentration at 8 h for CCc1c(N2CCN(C(=O)c3ncnc(C)c3O)CC2)c(=O)n2nc(C3=CCOCC3)nc2n1CC(=O)Nc1ccc(C(F)(F)F)cc1Cl ?
Response: 276

====

Assay: HRO761 blood PK in SW48 tumour-bearing mice
Format: in vivo, mouse
Settings: female, mouse, whole blood, oral, 60 mg/kg, Free HRO761 blood concentration, Mean; 1 h
Experimental: All animal studies were conducted in accordance with ethics and procedures covered by permit BS-2275 and BS-1975 issued by the Kantonales Veterinäramt Basel-Stadt and in strict adherence to guidelines of the Eidgenössisches Tierschutzgesetz and the Eidgenössische Tierschutzverordnung, Switzerland. All animal studies were approved by the internal ethics committee. […] PK parameters were determined by non-compartmental analysis. […]
observable: concentration at 1 h

Request: So what does the record say about concentration at 1 h for CCc1c(N2CCN(C(=O)c3ncnc(C)c3O)CC2)c(=O)n2nc(C3=CCOCC3)nc2n1CC(=O)Nc1ccc(C(F)(F)F)cc1Cl ?
Response: 4.48 µM
